Settings: acidic group
Decide using pKa: a value greater than or equal to 5 is Criterion met, a smaller one is Criterion not met.

Identify whether the reported pKa of the following molecule is 5 or greater: C[S+](C)CC(=O)c1ccc([N+](=O)[O-])cc1
Criterion met

Identify whether the reported pKa of the following molecule is 5 or greater: S=C(S)N1CCCC1
Criterion not met

Identify whether the reported pKa of the following molecule is 5 or greater: Cc1cc(C(CC(=O)O)c2ccccc2)ccc1O (stereo not given)
Criterion not met

Identify whether the reported pKa of the following molecule is 5 or greater: CC(C)(C)OC(=O)NS(=O)(=O)c1ccc(S(C)(=O)=O)cc1
Criterion not met

Identify whether the reported pKa of the following molecule is 5 or greater: CC(C)(C)C(=O)C(=O)O
Criterion not met

Identify whether the reported pKa of the following molecule is 5 or greater: S=c1[nH]cnc2nn[nH]c12
Criterion not met

Identify whether the reported pKa of the following molecule is 5 or greater: Oc1cc[nH+]nc1
Criterion not met

Identify whether the reported pKa of the following molecule is 5 or greater: CC(C)(C)C#CC(=O)O
Criterion not met

Identify whether the reported pKa of the following molecule is 5 or greater: Oc1cccc[nH+]1
Criterion not met

Identify whether the reported pKa of the following molecule is 5 or greater: Cc1cnc(C)c(O)c1C=O
Criterion met

Identify whether the reported pKa of the following molecule is 5 or greater: O=P(O)(O)C([NH2+]Cc1ccc[nH+]c1)c1ccccc1O (stereo not given)
Criterion not met

Identify whether the reported pKa of the following molecule is 5 or greater: OC(O)=C(O)c1ccccc1
Criterion met

Identify whether the reported pKa of the following molecule is 5 or greater: CN(C)c1cccc(NC=S)c1
Criterion met

Identify whether the reported pKa of the following molecule is 5 or greater: Cc1ccc(C(=S)Nc2ccc(Cl)cc2)cc1
Criterion met

Identify whether the reported pKa of the following molecule is 5 or greater: Cc1ccnc(NS(=O)(=O)c2ccc(N)cc2)n1
Criterion met

Identify whether the reported pKa of the following molecule is 5 or greater: Oc1[nH]c2ccccc2[nH+]1
Criterion not met

Identify whether the reported pKa of the following molecule is 5 or greater: CCCCOC(=O)c1ccc[n+](O)c1
Criterion not met

Identify whether the reported pKa of the following molecule is 5 or greater: Nc1c[nH+]c(S)nc1N
Criterion not met

Identify whether the reported pKa of the following molecule is 5 or greater: CN(C)c1ccc(/C=N/O)cc1
Criterion met

Identify whether the reported pKa of the following molecule is 5 or greater: CS(=O)c1ccc(O)cc1 (stereo not given)
Criterion met

Identify whether the reported pKa of the following molecule is 5 or greater: C/C=C/C#CC(=O)O
Criterion not met

Identify whether the reported pKa of the following molecule is 5 or greater: O=[N+]([O-])c1ccc2c(O)cccc2c1
Criterion met

Identify whether the reported pKa of the following molecule is 5 or greater: Nc1nc(O)cc[nH+]1
Criterion not met

Identify whether the reported pKa of the following molecule is 5 or greater: Clc1ccccc1-c1nnn[nH]1
Criterion not met

Identify whether the reported pKa of the following molecule is 5 or greater: O=C([O-])c1ccc(O)c2ncccc12
Criterion met

* * *

Conditions: acidic group
// thresholds for pKa classes: low: < 6; intermediate: ≥ 6 and < 10; high: ≥ 10

For this compound, which bin applies? O=[N+]([O-])c1cccc(S)c1
low

For this compound, which bin applies? Cc1cc(Cc2cc([N+](=O)[O-])ccc2[O-])cc(C)c1O
high

For this compound, which bin applies? O=C(O)C[C@@H]1NC(=O)CNC1=O
low

For this compound, which bin applies? COc1cnccc1C(O)O
high

For this compound, which bin applies? CCCC(C)C1(CC)C(=O)N=C([O-])NC1=O (stereo not drawn)
high

For this compound, which bin applies? C=C(C)C(=O)O
low

For this compound, which bin applies? O=[N+]([O-])c1ccc(-c2nnn[nH]2)cc1
low

For this compound, which bin applies? Cc1cccc(S(N)(=O)=O)c1
intermediate

For this compound, which bin applies? CSc1ncnc2[nH]ncc12
intermediate

For this compound, which bin applies? O=C1NC(=O)C(Cc2ccccc2)N1 (stereo not drawn)
intermediate

For this compound, which bin applies? Cc1ccc(C(=O)[O-])c(O)c1
high
